- Tested on: MPO (purified from human polynuclear leukocytes) (Homo sapiens)
- Construct: purified from human polynuclear leukocytes; purchased Calbiochem/EMD Biosciences; host or cells: human polynuclear leukocytes (natural source)
- Sequence (P05164 279-745 limits assumed): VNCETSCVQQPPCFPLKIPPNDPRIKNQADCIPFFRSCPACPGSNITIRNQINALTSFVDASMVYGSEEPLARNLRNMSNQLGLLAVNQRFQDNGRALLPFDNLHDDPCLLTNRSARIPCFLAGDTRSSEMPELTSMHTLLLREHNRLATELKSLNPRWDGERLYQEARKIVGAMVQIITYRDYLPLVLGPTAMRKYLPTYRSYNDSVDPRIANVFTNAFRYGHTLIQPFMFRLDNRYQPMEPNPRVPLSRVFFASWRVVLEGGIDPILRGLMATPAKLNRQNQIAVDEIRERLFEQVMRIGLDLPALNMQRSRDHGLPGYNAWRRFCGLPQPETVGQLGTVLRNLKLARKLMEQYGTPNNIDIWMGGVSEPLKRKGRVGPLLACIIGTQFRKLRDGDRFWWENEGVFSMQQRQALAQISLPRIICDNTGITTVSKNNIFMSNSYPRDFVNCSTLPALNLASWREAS
- Sequence (P05164 165-273 limits assumed): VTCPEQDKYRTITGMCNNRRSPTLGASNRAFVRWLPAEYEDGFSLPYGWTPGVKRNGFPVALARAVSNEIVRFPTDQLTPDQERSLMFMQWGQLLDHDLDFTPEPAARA
- Protocol notes: MPO Amplex Red Activity Assay
- Type: biochemical
- Condition notes: Table 1, 2 μM H2O2, pH 7.4
Where a name gives a salt, the structure may show the parent alone.
Overview of reported MPO kinact/Ki across a group of compounds:

Reference set, count: 5
INSERT INTO assay_data (compound, tested_on, measured_result) VALUES
  ('COc1ccc(-c2cc(=O)[nH]c(=S)n2CCNCC(=O)O)c(OC)c1 [Example 243, hydrochloride]', 'MPO (purified from human polynuclear leukocytes) (Homo sapiens)', '952 1/s per M'),
  ('COc1ccc(-c2cc(=O)[nH]c(=S)n2Cc2ncccn2)c(OC)c1', 'MPO (purified from human polynuclear leukocytes) (Homo sapiens)', '3060 1/s per M'),
  ('COc1ccc(-c2cc(=O)[nH]c(=S)n2CCNC(C)=O)c(OC)c1', 'MPO (purified from human polynuclear leukocytes) (Homo sapiens)', '1920 1/s per M'),
  ('COc1ccc(F)cc1-c1cc(=O)[nH]c(=S)n1CCN.Cl', 'MPO (purified from human polynuclear leukocytes) (Homo sapiens)', '3180 1/s per M'),
  ('COc1ccc(-c2cc(=O)[nH]c(=S)n2Cc2cccnc2)c(OC)c1', 'MPO (purified from human polynuclear leukocytes) (Homo sapiens)', '1910 1/s per M');

[Q] Which MPO kinact/Ki is reported for this compound? COc1cc(OC)c(-c2cc(=O)[nH]c(=S)n2CCN=C(N)N)cc1OC [Example 138, hydrochloride]
[A] 4530 1/s per M

[Q] Which MPO kinact/Ki is reported for this compound? COc1cc(Cl)ccc1-c1cc(=O)[nH]c(=S)n1CCN [Example 62, hydrochloride]
[A] 6930 1/s per M

[Q] Which MPO kinact/Ki is reported for this compound? COc1ccc(-c2cc(=O)[nH]c(=S)n2C[C@H](O)CN)c(OC)c1 [Example 197, trifluoroacetate]
[A] 5650 1/s per M
